target: GST-Bcl-XL (Homo sapiens, UniProt Q07817); test: TR-FRET binding assay, GST-Bcl-XL with F-Bak peptide probe; conditions: TR-FRET Binding Affinity, GST-Bcl-XL, F-Bak peptide probe
Sequence (Q07817 whole entry): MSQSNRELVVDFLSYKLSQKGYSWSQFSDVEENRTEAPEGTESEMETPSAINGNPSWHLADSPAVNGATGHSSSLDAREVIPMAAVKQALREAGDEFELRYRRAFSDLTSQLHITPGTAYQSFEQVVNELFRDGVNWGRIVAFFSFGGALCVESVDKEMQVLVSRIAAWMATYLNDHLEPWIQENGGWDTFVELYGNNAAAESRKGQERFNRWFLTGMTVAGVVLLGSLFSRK
Assign Ki to each entry below.
Give bare numbers, in nM.

Completed entries (count: 2):
CC1(C)CCC(CN2CCN(c3ccc(C(=O)NS(=O)(=O)c4ccc(NC5CCN(C6CCOCC6)CC5)c([N+](=O)[O-])c4)c(Oc4cccnc4)c3)CC2)=C(c2ccc(Cl)cc2)C1 : 83.4
CO[C@H]1CC[C@H](COc2ncc(S(=O)(=O)NC(=O)c3ccc(N4CCN(CC5=C(c6ccc(Cl)cc6)CC(C)(C)CC5)CC4)cc3Oc3cccc4[nH]ncc34)cc2Cl)CC1 : 95.6

Now take the following molecule into account.
Input line: What value of Ki on GST-Bcl-XL (Homo sapiens, UniProt Q07817) does CC1(C)CCC(CN2CCN(c3ccc(C(=O)NS(=O)(=O)c4ccc(N[C@@H]5CCN(C(CF)CF)C5)c([N+](=O)[O-])c4)c(Oc4cccc5[nH]ncc45)c3)CC2)=C(c2ccc(Cl)cc2)C1 have?
Output line: 32.9
